Recorded pIC50 for the following binders
Target: T1, Rat IL-23R_huFC (rat, UniProt F1LX96 39-369)
T1 sequence: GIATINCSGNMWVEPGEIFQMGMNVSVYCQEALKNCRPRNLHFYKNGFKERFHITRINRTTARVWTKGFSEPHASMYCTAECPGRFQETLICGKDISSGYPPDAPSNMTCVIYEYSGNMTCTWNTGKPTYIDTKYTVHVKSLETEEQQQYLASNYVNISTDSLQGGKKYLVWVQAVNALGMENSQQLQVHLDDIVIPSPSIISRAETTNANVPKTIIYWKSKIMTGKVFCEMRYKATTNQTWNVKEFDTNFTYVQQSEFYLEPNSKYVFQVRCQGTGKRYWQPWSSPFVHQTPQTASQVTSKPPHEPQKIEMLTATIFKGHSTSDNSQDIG
Assay: rat IL-23R competitive binding ELISA
Bridges are numbered along the chain shown (N, C = ends). [ ]: non-standard residue; d: D form. hLeu = CC(C)CC[C@H](N)C(=O)O
pIC50 is defined as minus the log10 of a concentration measured in mol/L.

For orientation, consider the following solved cases.
binder	resultNumber
Ac-CRTWQCYWSEFGTGE-NH2 (disulfide 1-6; SMILES CC(=O)N[C@H]1CSSC[C@@H](C(=O)N[C@@H](Cc2ccc(O)cc2)C(=O)N[C@@H](Cc2c[nH]c3ccccc23)C(=O)N[C@@H](CO)C(=O)N[C@@H](CCC(=O)O)C(=O)N[C@@H](Cc2ccccc2)C(=O)NCC(=O)N[C@H](C(=O)NCC(=O)N[C@@H](CCC(=O)O)C(N)=O)[C@@H](C)O)NC(=O)[C@H](CCC(N)=O)NC(=O)[C@H](Cc2c[nH]c3ccccc23)NC(=O)[C@H]([C@@H](C)O)NC(=O)[C@H](CCCNC(=N)N)NC1=O) [Ac-CRTWQCYWSEFGTGE-NH2]	6.11
Ac-CQTWQCYW[hLeu]EEG-NH2 (disulfide 1-6 (inferred)) [Ac-CQTWQCYW-[hLeu]-EEG-NH2]	7.28
Ac-CTTWQCYW[hLeu]ENG-NH2 (disulfide 1-6 (inferred)) [Ac-CTTWQCYW-[Leu]-ENG-NH2]	7.55
Ac-CRTWQCYWLRLGDEG-NH2 (disulfide 1-6 (inferred)) [Ac-CRTWQCYWLRLGDEG-NH2]	6.32
Ac-LCQTWQCYW[hLeu]ENG-NH2 (cysteine pairing not given here) [Ac-LCQTWQCYW-[hLeu]-ENG-NH2]	7.59

Turning now to a further binder:
For the binder shown here, Ac-CSTWECYWHTYG-NH2 (disulfide 1-6) [Ac-CSTWECYWHTYG-NH2] , give the reported pIC50. 6.54
